Reference source: ChEMBL document CHEMBL3882729

# target system: Ephrin type-B receptor 4 (Homo sapiens)
# Sequence (P54760 whole entry, the tested form may be a part): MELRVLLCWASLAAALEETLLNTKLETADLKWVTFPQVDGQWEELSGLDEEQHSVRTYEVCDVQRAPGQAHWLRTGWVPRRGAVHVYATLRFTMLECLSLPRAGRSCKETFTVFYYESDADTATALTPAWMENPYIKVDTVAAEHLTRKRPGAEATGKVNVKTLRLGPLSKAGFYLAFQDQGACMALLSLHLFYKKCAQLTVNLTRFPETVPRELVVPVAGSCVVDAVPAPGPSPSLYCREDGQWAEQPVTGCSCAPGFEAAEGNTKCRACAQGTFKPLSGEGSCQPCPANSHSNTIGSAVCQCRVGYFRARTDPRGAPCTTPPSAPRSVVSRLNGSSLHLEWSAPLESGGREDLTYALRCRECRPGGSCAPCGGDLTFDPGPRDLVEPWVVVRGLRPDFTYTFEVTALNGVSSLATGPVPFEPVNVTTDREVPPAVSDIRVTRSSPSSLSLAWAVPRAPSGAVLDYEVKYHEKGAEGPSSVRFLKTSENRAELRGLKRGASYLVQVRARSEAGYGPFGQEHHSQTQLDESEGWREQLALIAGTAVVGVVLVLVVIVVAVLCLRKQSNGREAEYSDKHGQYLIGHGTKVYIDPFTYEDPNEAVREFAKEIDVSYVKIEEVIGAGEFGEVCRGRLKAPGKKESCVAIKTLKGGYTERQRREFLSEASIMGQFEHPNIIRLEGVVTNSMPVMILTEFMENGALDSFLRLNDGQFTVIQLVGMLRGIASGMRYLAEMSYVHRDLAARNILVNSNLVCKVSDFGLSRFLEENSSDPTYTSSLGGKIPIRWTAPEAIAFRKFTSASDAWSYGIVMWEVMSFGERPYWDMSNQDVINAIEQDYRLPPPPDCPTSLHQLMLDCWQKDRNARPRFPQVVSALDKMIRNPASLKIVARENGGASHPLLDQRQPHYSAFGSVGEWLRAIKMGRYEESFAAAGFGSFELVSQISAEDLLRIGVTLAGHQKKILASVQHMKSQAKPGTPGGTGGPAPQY
# assay: Inhibition of recombinant human N-terminal His6-tagged EphB4 kinase domain (E605 to E890 residues) expressed in baculovirus using poly-AEKY as substrate after 150 mins in presence of gamma33P-ATP by liquid scintillation spectrometry
pIC50: −log10 of the molar value.
measured attribute: pIC50

Known pIC50 results, listed for orientation:
Q: Report pIC50 for CCOc1cc2c(Nc3ccc(Cl)c(Cl)c3)ncnc2cc1OCC1CNCCO1 (stereo unspecified) please.
Ans: > 7.30

Q: Report pIC50 for COc1cc2c(Nc3ccc(Cl)c(Cl)c3)ncnc2cc1OC[C@@H]1O[C@@H](OC)[C@@H](O)[C@H](O)[C@H]1O (single isomer, unassigned) please.
Ans: > 7.30

Q: Report pIC50 for CCS(=O)(=O)N1CCOC(COc2cc3ncnc(Nc4ccc(Cl)c(Cl)c4)c3cc2OC)C1 (stereo unspecified) please.
Ans: > 7.30

Q: Report pIC50 for COc1cc2c(Nc3ccc(Cl)c(Cl)c3)ncnc2cc1OCCC1CNC(C)(C)CO1 (stereo unspecified) please.
Ans: 6.00 to 7.30

Q: Report pIC50 for `CCN1CCc2nc(COc3cc4ncnc(Nc5ccc(Cl)c(Cl)c5)c4cc3OC)sc2C1` please.
Ans: > 7.30

***
Q: Report pIC50 for `COc1cc2c(Nc3ccc(N4CCN(C)CC4)cc3)ncnc2cc1O[C@H]1CO[C@H]2[C@@H]1OC[C@@H]2F` please.
Ans: 4.70 to 6.00

Q: Report pIC50 for COc1cc2c(Nc3ccc(Cl)c(Cl)c3)ncnc2cc1OCC1OCCN(CC(=O)c2ccccc2)C1=O (stereo unspecified) please.
Ans: 6.00 to 7.30
